- Species: Homo sapiens
- measurementNotes: To identify inhibition of the IFN signalling (Jak-Stat) pathway via expression of an eGFP reporter gene under the control of an IFN-stimulated response element (ISRE) containing MxA promoter.
- Format: functional
- Design: scale not given: direction of the effect not stated beside the values
- assayConditions: 30 µM
Percent Effect of 10% or higher: t. Under 10%: f.

Assess whether reported Percent Effect for CCOc1ccc(Cl)c(C(=O)N2CCN(CCO)CC2)n1 sits at 10% or higher.
f

Assess whether reported Percent Effect for CCc1ncc2c(n1)CN(CC(=O)NCCOc1ccccc1)CC2 sits at 10% or higher.
f

Assess whether reported Percent Effect for COc1ccnc(N2CCN(C(=O)c3csc(C(C)C)n3)CC2)n1 sits at 10% or higher.
t

Assess whether reported Percent Effect for COCCN1CCC(NCc2cccnc2)C1 (stereo unspecified) sits at 10% or higher.
t

Assess whether reported Percent Effect for Cc1cccc(OCCC(=O)N2CCN(S(=O)(=O)N(C)C)CC2)c1C sits at 10% or higher.
t

API: the following record is the query input.
Assess whether reported Percent Effect for Cc1ncc(CNC(=O)Nc2cc(C(F)(F)F)c[nH]c2=O)s1 sits at 10% or higher.
f

====

- studyTarget: Tyrosyl-tRNA synthetase, putative (Trypanosoma cruzi (strain CL Brener)) (UniProt Q4DSP6)
- Sequence (whole entry): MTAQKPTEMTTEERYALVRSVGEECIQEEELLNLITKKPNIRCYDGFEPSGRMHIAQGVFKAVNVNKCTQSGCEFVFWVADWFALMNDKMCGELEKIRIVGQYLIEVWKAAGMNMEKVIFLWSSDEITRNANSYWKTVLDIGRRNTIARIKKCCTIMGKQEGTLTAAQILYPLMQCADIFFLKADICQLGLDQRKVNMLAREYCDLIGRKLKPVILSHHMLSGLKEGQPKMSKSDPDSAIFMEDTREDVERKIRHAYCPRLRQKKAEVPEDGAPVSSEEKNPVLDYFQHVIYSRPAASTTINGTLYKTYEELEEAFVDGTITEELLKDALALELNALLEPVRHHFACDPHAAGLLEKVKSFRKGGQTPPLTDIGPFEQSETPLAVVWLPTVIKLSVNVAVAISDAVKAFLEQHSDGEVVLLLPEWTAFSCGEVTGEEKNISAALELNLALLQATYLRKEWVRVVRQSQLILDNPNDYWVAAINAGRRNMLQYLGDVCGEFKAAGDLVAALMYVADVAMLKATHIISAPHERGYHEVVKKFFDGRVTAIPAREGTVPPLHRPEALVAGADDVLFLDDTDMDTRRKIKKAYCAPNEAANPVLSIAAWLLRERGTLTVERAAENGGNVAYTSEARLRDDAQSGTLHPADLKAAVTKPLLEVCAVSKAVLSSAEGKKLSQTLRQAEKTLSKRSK
- measurementNotes: Trypanosoma cruzi tyrosyl tRNA synthetase (TcYRS) _High Tyrosine SOP; also: in the data most compounds retested in dose-response had high values
- Format: functional
- Set-up: scale not given: direction of the effect not stated beside the values
- assayConditions: 30 µM
Overview of reported Percent Effect across a group of compounds:
Numeric answer only, unit % assumed.

Recorded Percent Effect, per entry:
// recorded Percent Effect for O=C(CCc1cc2n(n1)CCCN(C(=O)c1ccccn1)C2)NC1CC1 : 4.21

// recorded Percent Effect for Cc1cccc(CN2C[C@H]3OC(=O)N(CCCN4CCOCC4)[C@H]3C2)n1 : 10.4

// recorded Percent Effect for CC(C)Cc1noc(CN2CCN(CCOc3ccc(Cl)cc3)CC2)n1 : 5.39

***
// recorded Percent Effect for Cc1ccc(O)c(CNC2CCc3nc(C(C)C)nn3C2)n1 (configuration not stated) : 1.06

// recorded Percent Effect for O=C1COc2cc(C(=O)NS(=O)(=O)c3ccccc3F)ccc2N1 : -4.43

// recorded Percent Effect for Cc1ccc(CNC(=O)CN2C=Nc3ccccc3S2(=O)=O)s1 : 10.3

// recorded Percent Effect for CCc1ccc(S(=O)(=O)Nc2cc(OC)c(OC)cc2C(=O)O)s1 : -7.39

// recorded Percent Effect for CN(Cc1nnc(C2CC2)n1C)C1CCN(Cc2ccccc2F)C1 (configuration not stated) : 0

// recorded Percent Effect for Cc1cc2c(cc1C)C(NCc1nnc3n1CCCCC3)CCCO2 (configuration not stated) : 2.15

// recorded Percent Effect for COc1ccc(CN2CCn3cc(CN4CCN(C)CC4)nc3C2)cc1 : -2.16

Attribution: ChEMBL document CHEMBL3988442
